biological target: Bacterial DNA-directed RNA polymerase (Bacteria, UniProt P0A7Z4+P0A800+P0A8T7+P0A8V2); assay: Inhibition of Escherichia coli DNA-primed RNA polymerase activity using [8-14C]ATP by scintillation counting
Sequence (P0A8V2 whole entry): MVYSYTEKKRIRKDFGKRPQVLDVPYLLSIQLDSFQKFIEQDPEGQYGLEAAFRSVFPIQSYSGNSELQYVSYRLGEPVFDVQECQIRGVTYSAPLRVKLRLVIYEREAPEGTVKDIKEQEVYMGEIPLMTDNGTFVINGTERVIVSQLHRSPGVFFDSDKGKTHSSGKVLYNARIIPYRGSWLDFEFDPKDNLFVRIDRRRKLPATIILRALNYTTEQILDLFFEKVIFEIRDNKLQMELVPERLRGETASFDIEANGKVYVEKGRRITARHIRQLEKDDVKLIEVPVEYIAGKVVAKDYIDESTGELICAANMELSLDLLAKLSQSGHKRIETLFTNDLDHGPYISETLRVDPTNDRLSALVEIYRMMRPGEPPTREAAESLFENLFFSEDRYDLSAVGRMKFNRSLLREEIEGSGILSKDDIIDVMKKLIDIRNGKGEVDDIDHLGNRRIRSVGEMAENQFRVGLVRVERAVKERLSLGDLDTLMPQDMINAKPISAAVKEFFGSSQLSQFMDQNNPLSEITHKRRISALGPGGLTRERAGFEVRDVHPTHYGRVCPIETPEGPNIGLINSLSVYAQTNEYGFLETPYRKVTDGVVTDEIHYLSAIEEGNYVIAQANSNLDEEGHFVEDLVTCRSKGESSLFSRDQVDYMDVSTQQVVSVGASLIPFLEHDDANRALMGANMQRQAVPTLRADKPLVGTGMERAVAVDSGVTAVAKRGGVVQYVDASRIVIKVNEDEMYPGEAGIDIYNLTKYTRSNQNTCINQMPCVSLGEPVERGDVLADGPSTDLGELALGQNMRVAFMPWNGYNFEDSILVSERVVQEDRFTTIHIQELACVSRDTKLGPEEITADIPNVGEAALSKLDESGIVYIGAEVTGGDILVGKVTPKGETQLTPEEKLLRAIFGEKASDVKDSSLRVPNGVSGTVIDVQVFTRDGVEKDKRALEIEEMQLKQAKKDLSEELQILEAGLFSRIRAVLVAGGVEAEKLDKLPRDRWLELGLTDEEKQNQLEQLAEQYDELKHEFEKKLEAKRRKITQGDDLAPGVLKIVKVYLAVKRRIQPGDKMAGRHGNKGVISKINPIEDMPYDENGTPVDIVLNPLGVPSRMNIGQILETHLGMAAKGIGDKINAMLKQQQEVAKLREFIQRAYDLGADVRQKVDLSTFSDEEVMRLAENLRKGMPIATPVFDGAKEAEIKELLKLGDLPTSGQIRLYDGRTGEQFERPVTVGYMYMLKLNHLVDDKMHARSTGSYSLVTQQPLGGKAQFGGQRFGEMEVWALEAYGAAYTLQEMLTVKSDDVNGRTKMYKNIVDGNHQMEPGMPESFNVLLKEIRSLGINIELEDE
Sequence (P0A7Z4 whole entry): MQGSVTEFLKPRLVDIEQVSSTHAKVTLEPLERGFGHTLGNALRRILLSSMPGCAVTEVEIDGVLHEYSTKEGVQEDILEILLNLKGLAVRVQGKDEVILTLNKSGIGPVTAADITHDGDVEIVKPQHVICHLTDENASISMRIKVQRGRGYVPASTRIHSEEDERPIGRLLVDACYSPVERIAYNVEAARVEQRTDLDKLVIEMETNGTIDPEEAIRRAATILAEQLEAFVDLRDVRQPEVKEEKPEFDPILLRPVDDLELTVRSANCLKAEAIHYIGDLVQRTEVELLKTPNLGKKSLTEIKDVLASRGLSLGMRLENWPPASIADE
Sequence (P0A8T7 whole entry): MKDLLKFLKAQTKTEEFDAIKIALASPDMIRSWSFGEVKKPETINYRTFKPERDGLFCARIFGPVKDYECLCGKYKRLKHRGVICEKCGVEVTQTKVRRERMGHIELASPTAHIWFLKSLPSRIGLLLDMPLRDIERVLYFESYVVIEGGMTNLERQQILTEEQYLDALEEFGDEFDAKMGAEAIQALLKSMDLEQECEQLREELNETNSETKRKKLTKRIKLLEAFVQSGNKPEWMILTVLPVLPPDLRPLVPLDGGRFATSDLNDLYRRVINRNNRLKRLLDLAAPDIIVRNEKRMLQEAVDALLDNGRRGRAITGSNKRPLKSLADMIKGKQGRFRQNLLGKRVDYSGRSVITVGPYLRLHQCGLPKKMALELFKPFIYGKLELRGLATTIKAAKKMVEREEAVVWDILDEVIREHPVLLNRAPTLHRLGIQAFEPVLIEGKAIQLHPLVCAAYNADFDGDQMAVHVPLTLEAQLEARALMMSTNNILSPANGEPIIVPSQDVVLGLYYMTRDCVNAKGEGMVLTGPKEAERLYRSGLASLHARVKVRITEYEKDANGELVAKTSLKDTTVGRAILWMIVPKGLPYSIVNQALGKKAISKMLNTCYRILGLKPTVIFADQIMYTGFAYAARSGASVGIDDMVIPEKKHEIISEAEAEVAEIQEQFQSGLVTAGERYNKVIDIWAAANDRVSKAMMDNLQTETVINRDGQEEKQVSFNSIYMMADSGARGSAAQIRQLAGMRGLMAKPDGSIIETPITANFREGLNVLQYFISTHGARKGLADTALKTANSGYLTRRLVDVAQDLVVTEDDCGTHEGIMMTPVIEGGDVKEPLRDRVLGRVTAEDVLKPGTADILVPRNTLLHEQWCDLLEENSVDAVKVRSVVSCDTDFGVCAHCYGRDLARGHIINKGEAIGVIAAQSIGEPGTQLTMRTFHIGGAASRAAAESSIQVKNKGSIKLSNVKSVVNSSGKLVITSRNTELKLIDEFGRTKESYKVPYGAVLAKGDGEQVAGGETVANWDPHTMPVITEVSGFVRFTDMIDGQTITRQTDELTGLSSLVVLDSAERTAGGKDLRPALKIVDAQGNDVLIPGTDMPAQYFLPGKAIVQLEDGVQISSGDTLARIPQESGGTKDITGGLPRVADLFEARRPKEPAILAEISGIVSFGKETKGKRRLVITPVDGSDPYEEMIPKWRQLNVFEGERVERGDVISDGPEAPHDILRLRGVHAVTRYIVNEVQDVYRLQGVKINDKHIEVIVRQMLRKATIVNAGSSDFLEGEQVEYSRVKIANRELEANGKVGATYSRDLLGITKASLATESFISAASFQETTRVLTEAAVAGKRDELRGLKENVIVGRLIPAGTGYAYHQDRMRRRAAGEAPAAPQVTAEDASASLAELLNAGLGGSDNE
Sequence (P0A800 whole entry): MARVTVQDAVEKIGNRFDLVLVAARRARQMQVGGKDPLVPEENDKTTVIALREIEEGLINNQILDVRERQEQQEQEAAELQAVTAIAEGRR
METRIC: IC50 (µM)
Hi! Could you send only the number? It should be in µM, unit omitted.

Memo: CCN(CC)CCCC(C)Nc1c2ccc(Cl)cc2nc2ccc(OC)cc12 (stereo unspecified) [QUINACRINE] , reported IC50: 20

---

tested on: L1210; test: Cytotoxicity against mouse L1210 cells assessed as growth inhibition at 10 ug/ml after 48 hrs; type: functional
METRIC: growth inhibition (GI) (%)
Hi! Could you send only the number? It should be in %, unit omitted.

| MOLECULE | QUANTITATIVE_RESULT |
| --- | --- |
| COc1ccc2nc3cc(Cl)ccc3c(NC3CC(C)(C)N([O])C(C)(C)C3)c2c1 | 63 |
| CC1(C)CC(NCCCNc2c3ccccc3nc3ccccc23)CC(C)(C)N1[O] | 87 |
| CC1(C)CC(Nc2c3ccccc3nc3ccccc23)CC(C)(C)N1[O] | 84 |
| COc1ccc2nc3cc(Cl)ccc3c(NC3CC(C)(C)N([O])C(C)(C)C3)c2n1 | 15 |
| CC1(C)CC(CNc2c3ccccc3nc3ccccc23)C(C)(C)N1[O] (stereo unspecified) | 79 |

Lab note: next molecule to report on.
Memo: COc1ccc2nc3cc(Cl)ccc3c(NCC3CC(C)(C)N([O])C3(C)C)c2c1 (stereo unspecified) , reported growth inhibition (GI): 76

---

biological target: Bacterial DNA-directed RNA polymerase (Bacteria) (UniProt P0A8V2+P0A7Z4+P0A8T7+P0A800); test: Inhibition of Escherichia coli DNA-primed RNA polymerase activity using [8-14C]ATP at 100 ug/ml by scintillation counting; format: protein-complex assay; parameters: scale not given: the % may be the effect or the level left
Each entry below lists one item and its recorded Activity value.
Returns: string containing the numeric result and its unit.

| COMPOUND | Activity |
| --- | --- |
| CC1(C)CC(CNc2c3ccccc3nc3ccccc23)C(C)(C)N1[O] (centres undefined) | 45% |
| CC1(C)CC(Nc2c3ccccc3nc3ccccc23)CC(C)(C)N1[O] | 36% |
| CC1(C)CC(NCCCNc2c3ccccc3nc3ccccc23)CC(C)(C)N1[O] | 31% |

Lab note: next compound to report on.
Field Activity (Bacterial DNA-directed RNA polymerase (Bacteria) (UniProt P0A8V2+P0A7Z4+P0A8T7+P0A800)), entry Nc1c2ccccc2nc2ccccc12 : 31%

---

Each entry below lists one item and its recorded Activity value.
target: Bacterial DNA-directed RNA polymerase (Bacteria) (UniProt P0A8V2+P0A7Z4+P0A8T7+P0A800); assay: Inhibition of Escherichia coli DNA-primed RNA polymerase activity using [8-14C]ATP at 25 ug/ml by scintillation counting; type: protein-complex assay; design: scale not given: the % may be the effect or the level left
Hi! Could you send only the number? It should be in %, unit omitted.

Solved cases below.
| COMPOUND | Activity (%) |
| --- | --- |
| Nc1c2ccccc2nc2ccccc12 | 40 |
| CC1(C)CC(NCCCNc2c3ccccc3nc3ccccc23)CC(C)(C)N1[O] | 71 |
| CC1(C)CC(CNc2c3ccccc3nc3ccccc23)C(C)(C)N1[O] (centres undefined) | 87 |

Lab note: next compound to report on.
Memo: CC1(C)CC(Nc2c3ccccc3nc3ccccc23)CC(C)(C)N1[O] , reported Activity: 96
